B1: m42.127 Fab / Biotinylated junctional peptide Pep21 (PfCSP peptide 21) [modified: biotin (position not stated); biotin (position not stated)] [Plasmodium falciparum (clone 3D7)] (parent complex)
chain 1: QVQLVQSGAEVKKPGASVKVSCKASGYTFTSYAIHWVRQAPGQRLEWMGWIKAGNGNTRYSQKFQDRVTITRDTSASTAYMELSSLRSEDTAVYYCALLTVITPDDTFDIWGQGTMVTVSSASTKGPSVFPLAPSSKSTSGGTAALGCLVKDYFPEPVTVSWNSGALTSGVHTFPAVLQSSGLYSLSSVVTVPSSSLGTQTYICNVNHKPSNTKVDKKVEPKSCDKGLEVLFQ
chain 2: not shown
chain 3: NPDPNANPNVDPNAN

# Variants of: B1
# assay_explanation: BLI; read off a plot

mutation	Kd
chain 1 P104Q	~20 nM
chain 1 T100M	~24 nM
chain 1 P104M	~22 nM
chain 1 T103R, chain 1 P104Q	~18 nM

Provenance of the data: paper PMC12269619
